# PROTOCOL TEXT: Proteolytic stability assessed as half life of trypsin-mediated hydrolysis by RP-HPLC
# Assay type: ADME
Positions of bridges follow the written chain, without caps; N, C: chain ends. Non-standard residues stand in square brackets, D forms with d. Residues, ends and D or L forms follow the SMILES beside them. Abu = CC[C@H](N)C(=O)O; Nlys = NCCCCNCC(=O)O
RECORDED METRIC: half-life (h)
All answers are understood in h, so give the number only.

See these solved cases before continuing.
compound=CC[C@H](NC(=O)[C@H](CCCNC(=N)N)NC(=O)CN)C(=O)N[C@H](C(=O)N[C@@H](Cc1ccccc1)C(=O)N[C@@H](CO)C(=O)N[C@H](C(=O)N1CCC[C@H]1C(=O)N1CCC[C@H]1C(=O)N[C@H](C(=O)N[C@@H](CC)C(=O)N[C@@H](Cc1ccccc1)C(=O)N1CCC[C@H]1C(=O)N[C@@H](CC(=O)O)C(=O)O)[C@@H](C)CC)[C@@H](C)CC)[C@@H](C)O scale_unit=h test_value=1.25
compound="CC[C@H](NC(=O)[C@H](CCCNC(=N)N)NC(=O)CN)C(=O)N[C@H](C(=O)N(CCCCN)CC(=O)N[C@@H](CO)C(=O)N[C@H](C(=O)N1CCC[C@H]1C(=O)N1CCC[C@H]1C(=O)N[C@H](C(=O)N[C@@H](CC)C(=O)N[C@@H](Cc1ccccc1)C(=O)N1CCC[C@H]1C(=O)N[C@@H](CC(=O)O)C(=O)O)[C@@H](C)CC)[C@@H](C)CC)[C@@H](C)O (H-GR[Abu]T[Nlys]SIPPI[Abu]FPD-OH)" scale_unit=h test_value=1.1
compound=CC[C@H](C)[C@@H]1NC(=O)[C@@H]2CCCN2C(=O)[C@@H]2CCCN2C(=O)[C@H]([C@@H](C)CC)NC(=O)[C@H](CO)NC(=O)[C@H](CCCCN)NC(=O)[C@H]([C@@H](C)O)NC(=O)[C@@H](NC(=O)[C@H](CCCNC(=N)N)NC(=O)CN)CSSC[C@@H](C(=O)N[C@@H](Cc2ccccc2)C(=O)N2CCC[C@H]2C(=O)N[C@@H](CC(=O)O)C(=O)O)NC1=O scale_unit=h test_value=2.75
compound="CC[C@@H]1NC(=O)[C@H](CCCNC(=N)N)NC(=O)CNC(=O)[C@H](CC(=O)O)NC(=O)[C@@H]2CCCN2C(=O)[C@H](Cc2ccccc2)NC(=O)[C@H](CC)NC(=O)[C@H]([C@@H](C)CC)NC(=O)[C@@H]2CCCN2C(=O)[C@@H]2CCCN2C(=O)[C@H]([C@@H](C)CC)NC(=O)[C@H](CO)NC(=O)[C@H](Cc2ccccc2)NC(=O)[C@H]([C@@H](C)O)NC1=O (cyclo([Abu]FPDGR[Abu]TFSIPPI))" scale_unit=h test_value=5.9
compound=CC[C@H](C)[C@@H]1NC(=O)[C@@H]2CCCN2C(=O)[C@@H]2CCCN2C(=O)[C@H]([C@@H](C)CC)NC(=O)[C@H](CO)NC(=O)[C@H](CCCCN)NC(=O)[C@H]([C@@H](C)O)NC(=O)[C@@H]2CSSC[C@H](NC1=O)C(=O)N[C@@H](Cc1ccccc1)C(=O)N1CCC[C@H]1C(=O)N[C@@H](CC(=O)O)C(=O)NCC(=O)N[C@@H](CCCNC(=N)N)C(=O)N2 scale_unit=h test_value=7.25
compound=CC[C@@H]1NC(=O)[C@H](CCCNC(=N)N)NC(=O)CNC(=O)[C@H](CC(=O)O)NC(=O)[C@@H]2CCCN2C(=O)[C@H](Cc2ccccc2)NC(=O)[C@H](CC)NC(=O)[C@H]([C@@H](C)CC)NC(=O)[C@@H]2CCCN2C(=O)[C@@H]2CCCN2C(=O)[C@H]([C@@H](C)CC)NC(=O)[C@H](CO)NC(=O)CN(Cc2ccccc2)C(=O)[C@H]([C@@H](C)O)NC1=O scale_unit=h test_value=5.87
compound=CC[C@@H]1NC(=O)[C@H](CCCNC(=N)N)NC(=O)CNC(=O)[C@H](CC(=O)O)NC(=O)[C@@H]2CCCN2C(=O)[C@H](Cc2ccccc2)NC(=O)[C@H](CC)NC(=O)[C@H]([C@@H](C)CC)NC(=O)[C@@H]2CCCN2C(=O)[C@@H]2CCCN2C(=O)[C@H]([C@@H](C)CC)NC(=O)[C@H](CO)NC(=O)CN(CCCCN)C(=O)[C@H]([C@@H](C)O)NC1=O scale_unit=h test_value=1.37

response.value for CC[C@H](C)[C@@H]1NC(=O)[C@@H]2CCCN2C(=O)[C@@H]2CCCN2C(=O)[C@H]([C@@H](C)CC)NC(=O)[C@H](CO)NC(=O)[C@H](Cc2ccccc2)NC(=O)[C@H]([C@@H](C)O)NC(=O)[C@@H](NC(=O)[C@H](CCCNC(=N)N)NC(=O)CN)CSSC[C@@H](C(=O)N[C@@H](Cc2ccccc2)C(=O)N2CCC[C@H]2C(=O)N[C@@H](CC(=O)O)C(=O)O)NC1=O (H-GRCTFSIPPICFPD-OH; disulfide 3-11) (field: half-life) = 3.03
